Target: KRAS G12V GMP-PNP (Homo sapiens, UniProt P01116, G12V)
Construct: His-tag (TEV-cleavable) (cleaved yes); made in house; host or cells: E. coli BL21* DE3
Sequence (P01116 1-188 isoform P01116-2 G12V): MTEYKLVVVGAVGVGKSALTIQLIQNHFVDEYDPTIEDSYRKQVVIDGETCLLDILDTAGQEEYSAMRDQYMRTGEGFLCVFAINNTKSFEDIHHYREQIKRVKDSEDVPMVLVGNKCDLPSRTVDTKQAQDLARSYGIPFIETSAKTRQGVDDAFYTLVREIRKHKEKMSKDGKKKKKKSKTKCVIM
Assay: Ligand-titrated [15N,1H]-HSQC affinity determination (TITAN line shape analysis)
Assay type: binding
observationType: pKd
Please report pKd as the negative decimal logarithm of the molar concentration, giving only the number.

Tested system KRAS G12V GMP-PNP (Homo sapiens, UniProt P01116, G12V); pKd recorded for `COc1ccc2sc(N)nc2c1` was 2.23
